Field: IC50. Provide a value for each of the compounds that follow.
# TEST TARGET: Bradykinin Receptor (Cavia porcellus)
# Sequence (O70526 1-372): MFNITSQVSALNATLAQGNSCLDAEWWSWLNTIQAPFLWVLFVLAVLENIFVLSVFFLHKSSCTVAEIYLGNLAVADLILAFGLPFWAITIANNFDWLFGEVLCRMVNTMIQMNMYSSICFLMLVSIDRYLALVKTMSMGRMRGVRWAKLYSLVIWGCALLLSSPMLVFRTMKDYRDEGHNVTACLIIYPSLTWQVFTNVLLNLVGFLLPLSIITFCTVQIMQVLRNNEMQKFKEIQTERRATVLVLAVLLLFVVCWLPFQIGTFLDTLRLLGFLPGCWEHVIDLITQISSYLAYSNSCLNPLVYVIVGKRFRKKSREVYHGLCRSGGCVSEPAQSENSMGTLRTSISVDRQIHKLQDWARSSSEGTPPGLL
Where a SMILES comes first, the peptide text is derived from it. [ ]: non-standard residue; d: D form. d(hArg)(Nω,Nω'-(CH2CF3)2) = N[C@H](CCCCNC(=NCC(F)(F)F)NCC(F)(F)F)C(=O)O; Oic = O=C(O)[C@@H]1C[C@@H]2CCCC[C@@H]2N1; Arg(Me2s) = CN=C(NC)NCCC[C@H](N)C(=O)O; Arg(Et) = CCNC(=N)NCCC[C@H](N)C(=O)O; Arg(Me) = CNC(=N)NCCC[C@H](N)C(=O)O; Hyp = O=C(O)[C@@H]1C[C@@H](O)CN1; dTic = O=C(O)[C@H]1Cc2ccccc2CN1
Numbers only, in pM.

# annotated cases, reported IC50 shown
COMPOUND	TEST TARGET	MEASUREMENT LABEL	MEASURED VALUE
CN=C(N)NCCC[C@H](NC(=O)[C@@H]1C[C@@H]2CCCC[C@@H]2N1C(=O)[C@H]1Cc2ccccc2CN1C(=O)[C@H](CO)NC(=O)[C@H](Cc1ccccc1)NC(=O)CNC(=O)[C@@H]1C[C@@H](O)CN1C(=O)[C@@H]1CCCN1C(=O)[C@H](CCCNC(N)=NC)NC(=O)[C@H](N)CCCCNC(=NCC(F)(F)F)NCC(F)(F)F)C(=O)O [Compound 91] (H-[d(hArg)(Nω,Nω'-(CH2CF3)2)][Arg(Me)]P[Hyp]GFS[dTic][Oic][Arg(Me)]-OH)	Bradykinin Receptor (Cavia porcellus)	IC50	50
CCN=C(N)NCCC[C@H](NC(=O)[C@H](N)CCCCNC(=NCC(F)(F)F)NCC(F)(F)F)C(=O)N1CCC[C@H]1C(=O)N1C[C@H](O)C[C@H]1C(=O)NCC(=O)N[C@@H](Cc1ccccc1)C(=O)N[C@@H](CO)C(=O)N1Cc2ccccc2C[C@@H]1C(=O)N1[C@H](C(=O)N[C@@H](CCCNC(=NC)NC)C(=O)O)C[C@@H]2CCCC[C@@H]21 [Compound 90] (H-[d(hArg)(Nω,Nω'-(CH2CF3)2)][Arg(Et)]P[Hyp]GFS[dTic][Oic][Arg(Me2s)]-OH)	Bradykinin Receptor (Cavia porcellus)	IC50	40

Now let's try a different one.
Endpoint output: IC50 of CN=C(N)NCCC[C@H](NC(=O)[C@@H]1CCCN1C(=O)[C@H]1Cc2ccccc2CN1C(=O)[C@H](CO)NC(=O)[C@H](Cc1ccccc1)NC(=O)CNC(=O)[C@@H]1C[C@@H](O)CN1C(=O)[C@@H]1CCCN1C(=O)[C@H](CCCNC(N)=NC)NC(=O)[C@H](N)CCCCNC(=NCC(F)(F)F)NCC(F)(F)F)C(=O)O [Compound 21] (H-[d(hArg)(Nω,Nω'-(CH2CF3)2)][Arg(Me)]P[Hyp]GFS[dTic]P[Arg(Me)]-OH) . Value?
2200
